- experiment.description: Metabolic stability in human liver microsomes assessed as half-life at 5 uM measured upto 30 mins in presence of NADPH by LC-MS/MS analysis
- Format: ADME, Microsome
readout.label: half-life at 5 µM (min)
Report only the number, with the unit min understood.

> print(dat)
                                chem.smiles  readout.value
1  C=C(C)[C@@H]1CCC(C)=C[C@H]1c1c(O)cc(CCCCC)c2c1OCN(CCCC)C2             32

Lookup: Looking for the measured half-life at 5 µM of C=C(C)[C@@H]1CCC(C)=C[C@H]1c1c(O)cc(CCCCC)c2c1OCN(C1CCC1)C2 , can you help?
Found: 18

###

- experiment.description: Metabolic stability in human liver assessed as intrinsic clearance at 5 uM measured upto 30 mins in presence of NADPH by LC-MS/MS analysis
- Format: ADME, tissue-based
- condition: read-out: CLH
Listing of recorded CLint scaled at 5 µM by entry.
Please format your answer as a value with the unit trailing.

> print(dat)
                                chem.smiles  readout.value
1  C=C(C)[C@@H]1CCC(C)=C[C@H]1c1c(O)cc(CCCCC)c2c1OCN(CCCC)C2   51 mL/min/kg

// moving on: another record for CLint scaled at 5 µM
Lookup: Looking for the measured CLint scaled at 5 µM of C=C(C)[C@@H]1CCC(C)=C[C@H]1c1c(O)cc(CCCCC)c2c1OCN(C1CCC1)C2 , can you help?
Found: 90 mL/min/kg

###

- experiment.description: Metabolic stability in mouse liver microsomes assessed as half-life at 5 uM measured upto 30 mins in presence of NADPH by LC-MS/MS analysis
- Type: ADME, Microsome
readout.label: half-life at 5 µM (min)
Report only the number, with the unit min understood.

> print(dat)
                                chem.smiles      readout.label  unit.descriptor  readout.value
1  C=C(C)[C@@H]1CCC(C)=C[C@H]1c1c(O)cc(CCCCC)c2c1OCN(C1CCC1)C2  half-life at 5 µM              min             10

// moving on: another record for half-life at 5 µM
Lookup: Looking for the measured half-life at 5 µM of C=C(C)[C@@H]1CCC(C)=C[C@H]1c1c(O)cc(CCCCC)c2c1OCN(CCCC)C2 , can you help?
Found: 31

###

- Tested on: Jurkat
- experiment.description: Anticancer activity against human Jurkat cells
- Type: functional, cell-based
readout.label: IC50 (nM)
Report only the number, with the unit nM understood.

Answered examples (3):
> print(dat)
                                chem.smiles  readout.label  readout.value
1  C=C(C)[C@@H]1CCC(C)=C[C@H]1C1=C(OC)C(=O)C(CCCCC)=CC1=O           IC50            449
2  C=C(C)[C@@H]1CCC(C)=C[C@H]1C1=C(O)C(=O)C(CCCCC)=C(C)C1=O           IC50            449
3  CCCCCC1=CC(=O)C([C@@H]2C=C(C)CC[C@H]2C(C)C)=C(O)C1=O           IC50            154

// moving on: another record for IC50
Lookup: Looking for the measured IC50 of C=C(C)[C@@H]1CCC(C)=C[C@H]1C1=C(O)C(=O)C(CCCCC)=CC1=O , can you help?
Found: 449

###

- experiment.description: Cytotoxicity against human HEK293 cells assessed as inhibition of cell growth incubated for 48 hrs by SRB assay
- Format: toxicity, cell-based
Listing of recorded IC50 at 48 h by entry.
Report only the number, with the unit µM understood.

> print(dat)
                                chem.smiles  readout.value
1  C=C(C)[C@@H]1CCC(C)=C[C@H]1c1c(O)cc(CCCCC)c2c1OCN(CC)C2           16.8
2  C=C(C)[C@@H]1CCC(C)=C[C@H]1c1c(O)cc(CCCCC)c2c1OCN(CCCC)C2           37.1
3  C=C(C)[C@@H]1CCC(C)=C[C@H]1c1c(O)cc(CCCCC)c2c1OCN(CCCN1CCOCC1)C2           10.6
4  C=C(C)[C@@H]1CCC(C)=C[C@H]1c1c(O)cc(CCCCC)c2c1OCN(C1CCC1)C2           28.1
5  C=C(C)[C@@H]1CCC(C)=C[C@H]1c1c(O)cc(CCCCC)c2c1OCN(C)C2           12.4

Lookup: Looking for the measured IC50 at 48 h of C=C(C)[C@@H]1CCC(C)=C[C@H]1c1c(O)cc(CCCCC)cc1O , can you help?
Found: 95.2

Lookup: Looking for the measured IC50 at 48 h of C=C(C)[C@@H]1CCC(C)=C[C@H]1c1c(O)cc(CCCCC)c2c1OCN(CCCCCC)C2 , can you help?
Found: 23.5

Lookup: Looking for the measured IC50 at 48 h of C=C(C)[C@@H]1CCC(C)=C[C@H]1c1c(O)cc(CCCCC)c2c1OCN(CCC)C2 , can you help?
Found: 21.8

###

- System: MCF7
- experiment.description: Anticancer activity against human MCF7 cells assessed as effect on cell viability by SRB assay
- Type: functional, cell-based
Activity calls are given as the source filed them. The rule behind the calls is not given here.
readout.label: Activity

Answered examples (4):
> print(dat)
                                chem.smiles  readout.value
1    O=C(Nc1ccccc1)c1cc([N+](=O)[O-])ccc1Cl       inactive
2  COc1ccc(-c2oc3cc(OC)ccc3c2C(=O)c2ccc(C#N)cc2)cc1       inactive
3  Oc1cc2c(cc1O)CN(C(=S)NCCc1ccc(Cl)cc1)CCC2       inactive
4  Cc1ccc(Cn2nc(C(=O)N[C@@H]3C(C)(C)[C@@H]4CC[C@@]3(C)C4)cc2-c2ccc(Cl)c(C)c2)cc1       inactive

// moving on: another record for Activity
Lookup: Looking for the measured Activity of Cc1cc(C)c2nc(-c3ccccn3)cc(C(=O)Nc3ccc(S(=O)(=O)Nc4onc(C)c4C)cc3)c2c1 , can you help?
Found: inactive

###

- experiment.description: Anticancer activity against mouse GL261 cells
- Assay type: functional, cell-based
readout.label: pIC50
pIC50 is a log-scale quantity: -log10 of the concentration expressed in molar.

Lookup: Looking for the measured pIC50 of C=C(C)[C@@H]1CCC(C)=C[C@H]1c1c(O)cc(CCCCC)cc1O [CANNABIDIOL] , can you help?
Found: 5.92

###

- experiment.description: Anticancer activity against KiMol cells (unknown origin)
- Format: functional, cell-based
- condition: KiMol cell
readout.label: IC50 (µM)
Report only the number, with the unit µM understood.

Lookup: Looking for the measured IC50 of C=C(C)[C@@H]1CCC(C)=C[C@H]1c1c(O)cc(CCCCC)cc1O , can you help?
Found: 6

###

- experiment.description: Solubility of compound in SGF by UV absorbance based analysis
- Type: physicochemical
readout.label: solubility

Answered examples (2):
> print(dat)
                                chem.smiles  readout.value
1  C=C(C)[C@@H]1CCC(C)=C[C@H]1c1c(O)cc(CCCCC)c2c1OCN(CCCC)C2   > 1500 µg/mL
2     O=C(/C=C/C=C/c1ccc2c(c1)OCO2)N1CCCCC1       40 µg/mL

// moving on: another record for solubility
Lookup: Looking for the measured solubility of C=C(C)[C@@H]1CCC(C)=C[C@H]1c1c(O)cc(CCCCC)c2c1OCN(C1CCC1)C2 , can you help?
Found: > 1500 µg/mL

###

- Test system: RBL-2H3
- experiment.description: Anticancer activity against rat RBL-2H3 cells
- Format: functional, cell-based
readout.label: pIC50
pIC50 is a log-scale quantity: -log10 of the concentration expressed in molar.

Lookup: Looking for the measured pIC50 of C=C(C)[C@@H]1CCC(C)=C[C@H]1c1c(O)cc(CCCCC)cc1O , can you help?
Found: 5.20

###

- experiment.description: Metabolic stability in human liver microsomes assessed as intrinsic clearance at 5 uM measured upto 30 mins per mg protein in presence of NADPH by LC-MS/MS analysis
- Type: ADME, Microsome
- condition: read-out: CLH
Listing of recorded microsomal CLint at 5 µM by entry.
Report only the number, with the unit µL/min/mg understood.

> print(dat)
                                chem.smiles             readout.label  readout.value
1  C=C(C)[C@@H]1CCC(C)=C[C@H]1c1c(O)cc(CCCCC)c2c1OCN(C1CCC1)C2  microsomal CLint at 5 µM             77

// moving on: another record for microsomal CLint at 5 µM
Lookup: Looking for the measured microsomal CLint at 5 µM of C=C(C)[C@@H]1CCC(C)=C[C@H]1c1c(O)cc(CCCCC)c2c1OCN(CCCC)C2 , can you help?
Found: 44
